Attribution: PubChem BioAssay (NCATS)

Target: Retinal dehydrogenase 2 (Homo sapiens)
Experiment: qHTS for Inhibitors of the Aldehyde Dehydrogenase Family (ALDH1A2) Confirmation screens (AID 2061314); note: nearly all actives have a fitted effect of over 65% in size
Settings: ALDH1A2 enzyme inhibition qHTS confirmation; series mostly up to 45.9 µM
Results filed as inconclusive are left out. Activity calls are given as the source filed them. Calls come from the whole dose curve; as a rule, active = well fitted inhibition curve with a large enough effect; inconclusive = small, poorly fitted or top-dose-only effect; inactive = no such curve, though single readings can be large or run the other way.
Classes used: active, inactive

[
  {
    "Molecule": "O=c1nc(-c2ccccn2)sc2ccccc12",
    "Class name": "inactive"
  },
  {
    "Molecule": "CCCCCCN(CCCCCC)C(=O)Cc1c(-c2ccc(F)cc2)[nH]c2ccccc12",
    "Class name": "inactive"
  },
  {
    "Molecule": "CCOC(=O)c1cccc(-n2cnc(/C=C3\\NC(=O)N(CC(=O)O)C3=O)c2)c1",
    "Class name": "inactive"
  },
  {
    "Molecule": "NC(=O)C1CCN(c2nccc(-c3ccc4c(c3)OCCO4)n2)CC1",
    "Class name": "active"
  },
  {
    "Molecule": "NC(=O)[C@H]1CCS[C@@H]2C[C@]3(CCCN3C(=O)Cc3ccc(NC(=O)COc4ccc(Cl)cc4Cl)cc3)C(=O)N12",
    "Class name": "inactive"
  },
  {
    "Molecule": "O=[S+]([O-])(NCc1nccs1)c1ccc(Nc2nc(-c3ccccc3)cs2)cc1",
    "Class name": "inactive"
  },
  {
    "Molecule": "COc1ccc(C2=Nn3c(nnc3-c3cccc(OC)c3OC)SC2)cc1",
    "Class name": "inactive"
  },
  {
    "Molecule": "CC(CC(C)O[C@@H]1O[C@H](CO)[C@@H](O)[C@H](O)[C@H]1O)OC(=O)/C=C/c1ccc(O)cc1 (stereo partly specified)",
    "Class name": "inactive"
  },
  {
    "Molecule": "c1cncc(CNc2ncnc3ccc(-c4ccoc4)cc23)c1",
    "Class name": "inactive"
  },
  {
    "Molecule": "O=C(NN1CCCC1)NS(=O)(=O)c1ccc(Cl)cc1",
    "Class name": "inactive"
  },
  {
    "Molecule": "CC1CC(O)CC(C)(C)C1(O)CCO (stereo unspecified)",
    "Class name": "inactive"
  },
  {
    "Molecule": "CC(C)(C)OC(=O)N1CCN(c2ccc(NCc3cnc(-c4ccc(C#N)cc4)s3)cc2)CC1",
    "Class name": "inactive"
  },
  {
    "Molecule": "CCN(CC)CCOCCOC(=O)C(CC)(CC)c1ccccc1",
    "Class name": "inactive"
  },
  {
    "Molecule": "CC(C)(C)OC(=O)N1CCN(c2ccc(NCc3ccc(-c4ccccc4F)o3)cc2)CC1",
    "Class name": "inactive"
  },
  {
    "Molecule": "COc1ccc(-c2nc3ccccc3s2)cc1",
    "Class name": "inactive"
  },
  {
    "Molecule": "C[C@H]1[C@H](/C=C/c2ccc(-c3ccccc3C#N)cn2)[C@@H]2[C@@H](C)OC(=O)[C@@H]2C[C@@H]1C",
    "Class name": "inactive"
  },
  {
    "Molecule": "CC/C=C\\[C@H](O)[C@H](O)C1=C(C)C(=O)[C@]2(O1)C(=O)N[C@@](O)(C(=O)c1ccccc1)[C@@H]2O",
    "Class name": "inactive"
  },
  {
    "Molecule": "CCOc1cc(CNc2ccc(O)cc2)ccc1OCc1ccc(Cl)cc1",
    "Class name": "active"
  },
  {
    "Molecule": "CN(C)c1ccc(NC(=O)NS(=O)(=O)c2ccc(Cl)cc2)cc1",
    "Class name": "active"
  },
  {
    "Molecule": "Cc1ccc2nc(-c3ccccn3)c(Nc3ccccc3C)n2c1",
    "Class name": "inactive"
  },
  {
    "Molecule": "COc1cc(CNc2ncnc3ccc(-c4c(C)noc4C)cc23)cc(OC)c1OC",
    "Class name": "inactive"
  }
]

====

Target: Aldehyde dehydrogenase, mitochondrial (Homo sapiens) (UniProt P05091)
Assay: qHTS for Inhibitors of the Aldehyde Dehydrogenase Family (ALDH2) Primary screen (AID 2061308);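 note: plate controls were vehicle for no effect and reference inhibitor for full effect; nearly all actives have a fitted effect of over 55% in size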
Conditions: ALDH2 enzyme inhibition qHTS, 1536-well; series mostly up to 56 µM
Results filed as inconclusive are left out. Active and inactive are the calls of the source. Calls come from the whole dose curve; as a rule, active = well fitted inhibition curve with a large enough effect; inconclusive = small, poorly fitted or top-dose-only effect; inactive = flat fitted curve, though single readings scatter.
Outcome measure: activity change, negative = inhibition

[
  {
    "Compound": "COc1cc(CCc2cc(NC(=O)c3ccc(N4CC(C)NC(C)C4)cc3)n[nH]2)cc(OC)c1 (stereo unspecified)",
    "Result": "inactive"
  },
  {
    "Compound": "CC1(C)CC[C@]2(C(=O)O[C@@H]3O[C@H](CO)[C@@H](O)[C@H](O)[C@H]3O)CC[C@]3(C)C(=CCC4[C@@]5(C)C[C@@H](O)[C@H](O)[C@@](C)(CO)C5CC[C@]43C)C2C1 (stereo partly specified)",
    "Result": "inactive"
  },
  {
    "Compound": "C=C1C(=O)OC2CC(C)=C(C(C)CCCO[C@@H]3O[C@H](CO)[C@@H](O)[C@H](O)[C@H]3O)C(O)C12 (stereo partly specified)",
    "Result": "inactive"
  },
  {
    "Compound": "Cc1cc(O)cc2c1O[C@](C)(CCC[C@H](C)CCC[C@H](C)CCCC(C)C)CC2",
    "Result": "inactive"
  },
  {
    "Compound": "C=C1CC[C@H](O)CC1=C/C=C1\\CCC[C@]2(C)[C@@H]([C@H](C)/C=C/[C@H](C)C(C)C)CC[C@@H]12",
    "Result": "inactive"
  },
  {
    "Compound": "COC(=O)C1=CO[C@@H](O[C@@H]2O[C@H](CO)[C@@H](O)[C@H](O)[C@H]2O)[C@H]2[C@@H]1C=C[C@]21C=C([C@H](C)OC(=O)/C=C/c2ccc(O[C@@H]3O[C@H](CO)[C@@H](O)[C@H](O)[C@H]3O)cc2)C(=O)O1",
    "Result": "inactive"
  }
]

====

Target: Aldehyde dehydrogenase 1A1 (Homo sapiens) (UniProt P00352)
Assay: qHTS for Inhibitors of the Aldehyde Dehydrogenase Family (ALDH1A1) Confirmatory screens (AID 2061316); note: nearly all actives have a fitted effect of over 65% in size
Details: ALDH inhibition qHTS; series mostly up to 47.3 µM
Records with an inconclusive call do not appear. Active and inactive are the calls of the source. Calls come from the whole dose curve; as a rule, active = well fitted inhibition curve with a large enough effect; inconclusive = small, poorly fitted or top-dose-only effect; inactive = no such curve, though single readings can be large or run the other way.
Classes used: label 1 = active, label 0 = inactive

[
  {
    "Compound": "CCCCNc1ccc(C(=O)OCCN(CC)CC)cc1",
    "Class name": "label 0"
  },
  {
    "Compound": "Cc1cccc2c(C(=O)O)cc(Cl)nc12",
    "Class name": "label 0"
  },
  {
    "Compound": "COCC(=O)O[C@]1(CCN(C)CCCc2nc3ccccc3[nH]2)CCc2cc(F)ccc2[C@@H]1C(C)C",
    "Class name": "label 0"
  },
  {
    "Compound": "N#Cc1c(C(=O)c2cccs2)no[n+]1[O-]",
    "Class name": "label 1"
  },
  {
    "Compound": "N#Cc1ccc(-c2ccc(C3Nc4ccccc4C(=O)N3O)o2)cc1 (stereo unspecified)",
    "Class name": "label 1"
  },
  {
    "Compound": "O=S(=O)(NCCCCCCNS(=O)(=O)c1c(F)cccc1F)c1ccc2c(c1)OCCO2",
    "Class name": "label 1"
  },
  {
    "Compound": "COc1cc([C@@H](O[C@@H]2O[C@H](CO)[C@@H](O)[C@H](O)[C@H]2O)[C@@H]2CO[C@H](c3ccc(O)c(OC)c3)[C@H]2CO)ccc1O",
    "Class name": "label 0"
  },
  {
    "Compound": "O=C(Nc1ccc(Cl)c(Cl)c1)Nc1cccc(-c2ccncc2)n1",
    "Class name": "label 0"
  },
  {
    "Compound": "O=C(C1CCN(c2nc(-c3ccc(Br)cc3)cs2)CC1)N1CCNCC1",
    "Class name": "label 1"
  },
  {
    "Compound": "CC(C)(C)Nc1nc(C#N)nc(Nc2ccccc2)n1",
    "Class name": "label 0"
  },
  {
    "Compound": "Cc1nc2c(C#N)c[nH]n2c(=O)c1C(C)C",
    "Class name": "label 0"
  },
  {
    "Compound": "CCC(=O)C1CCCN(C(=O)CC(c2ccc3c(c2)OCO3)c2c(O)cc(OC)cc2OC)C1 (stereo unspecified)",
    "Class name": "label 0"
  },
  {
    "Compound": "NC(=O)C1CCN(c2nc(-c3ccc(Cl)cc3)cs2)CC1",
    "Class name": "label 0"
  },
  {
    "Compound": "COc1cc(O)c(C(=O)O)c(CCc2ccccc2)c1",
    "Class name": "label 1"
  },
  {
    "Compound": "CCOC(=O)c1cnn(-c2ccc(NC(=O)C(Cl)=C(Cl)Cl)cc2)c1C(F)(F)F",
    "Class name": "label 1"
  },
  {
    "Compound": "COC(=O)C1=COC(OC2OC(CO)C(O)C(O)C2O)C2C(COC(=O)/C=C/c3ccc(O)c(O)c3)C(O)C(O)C12 (stereo unspecified)",
    "Class name": "label 0"
  },
  {
    "Compound": "Cn1c(N2CCCCS2(=O)=O)nc(C(=O)NCc2ccc(F)cc2)c(O)c1=O",
    "Class name": "label 0"
  },
  {
    "Compound": "O=C1Nc2ccccc2/C1=C\\c1ccc(O)c(F)c1",
    "Class name": "label 0"
  },
  {
    "Compound": "COc1ccc(-c2nc(CNS(=O)(=O)c3ccc(F)cc3)cs2)cc1",
    "Class name": "label 0"
  },
  {
    "Compound": "CC(C)(C)OC(=O)N1CCN(c2ccc(NCc3cccc(-c4ccc(C#N)cc4)n3)cc2)CC1",
    "Class name": "label 1"
  },
  {
    "Compound": "Cc1ccc(S(=O)(=O)NC(=O)NN2CCCCCC2)cc1",
    "Class name": "label 0"
  }
]
